test: Protein binding in rat assessed as unbound fraction; format: ADME

# smiles.record, censoring.operator, fraction unbound
rows = [
    ("COC(=O)Nc1ccc2c(c1)N[C@@H](C(=O)O)CCCC[C@H](NC(=O)/C=C/c1cc(Cl)ccc1-n1cnnn1)c1nc-2c[nH]1", "=", 0.014),
    ("COC(=O)Nc1ccc2c(c1)N[C@@H](C(=O)OC)CCCC[C@H](NC(=O)/C=C/c1cc(Cl)ccc1-n1cnnn1)c1nc-2c[nH]1", "<", 0.002),
    ("COC(=O)Nc1ccc2c(c1)N[C@@H](C(F)(F)F)CCCC[C@H](NC(=O)/C=C/c1cc(Cl)ccc1-n1cnnn1)c1nc-2c[nH]1", "=", 0.002),
    ("CCOC(=O)[C@H]1CCCC[C@H](NC(=O)/C=C/c2cc(Cl)ccc2-n2cnnn2)c2nc(c[nH]2)-c2ccc(NC(=O)OC)cc2N1", "<", 0.002),
    ("CCOC(=O)[C@H]1CCCC[C@H](NC(=O)/C=C/c2cc(Cl)ccc2-n2cnnn2)c2cc(ccn2)-c2ccc(NC(=O)OC)cc2N1", "=", 0.008),
]

----------
Measured Vd of individual entries
experiment: Volume of distribution at steady state in Sprague-Dawley rat at 0.50 mg/kg, iv or 1.0 mg/kg, po measured upto 24 hrs by LC-MS/MS analysis; type: ADME, organism-based; conditions: in vivo, 0.5 mg/kg, read-out: Vdss

# smiles.record, Vd, L/kg
rows = [
    ("CCOC(=O)[C@H]1CCCC[C@H](NC(=O)/C=C/c2cc(Cl)ccc2-n2cnnn2)c2nc(c[nH]2)-c2ccc(NC(=O)OC)cc2N1", 0.2),
    ("CCOC(=O)[C@H]1CCCC[C@H](NC(=O)/C=C/c2cc(Cl)ccc2-n2cnnn2)c2cc(ccn2)-c2ccc(NC(=O)OC)cc2N1", 1.3),
]

----------
Item-by-item account of half-life
test: Half life in Sprague-Dawley rat at 0.50 mg/kg, iv or 1.0 mg/kg, po measured upto 24 hrs by LC-MS/MS analysis; format: ADME, organism-based; details: in vivo

# smiles.record, half-life [h]
measured = [
    ("CCOC(=O)[C@H]1CCCC[C@H](NC(=O)/C=C/c2cc(Cl)ccc2-n2cnnn2)c2cc(ccn2)-c2ccc(NC(=O)OC)cc2N1", 3.6),
    ("CCOC(=O)[C@H]1CCCC[C@H](NC(=O)/C=C/c2cc(Cl)ccc2-n2cnnn2)c2nc(c[nH]2)-c2ccc(NC(=O)OC)cc2N1", 1.5),
]

----------
assay: Half life in Sprague-Dawley rat at 0.52 mg/kg, iv or 1.04 mg/kg, po measured upto 24 hrs by LC-MS/MS analysis; type: ADME, organism-based; details: in vivo

# smiles.record, half-life
rows = [
    ("COC(=O)Nc1ccc2c(c1)N[C@@H](C(=O)OC)CCCC[C@H](NC(=O)/C=C/c1cc(Cl)ccc1-n1cnnn1)c1cc-2ccn1", "1.2 h"),
]

----------
test: Clearance in Sprague-Dawley rat at 0.52 mg/kg, iv or 1.04 mg/kg, po measured upto 24 hrs by LC-MS/MS analysis; type: ADME, organism-based; details: in vivo
observable: clearance

# smiles.record, assay.value
data = [
    ("COC(=O)Nc1ccc2c(c1)N[C@@H](C(=O)OC)CCCC[C@H](NC(=O)/C=C/c1cc(Cl)ccc1-n1cnnn1)c1cc-2ccn1", "5.2 mL/min/kg"),
]

----------
experiment: Oral bioavailability in Sprague-Dawley rat at 1.06 mg/kg measured upto 24 hrs by LC-MS/MS analysis; assay type: ADME, organism-based; settings: in vivo

# smiles.record, bioavailability (%)
data = [
    ("COC(=O)Nc1ccc2c(c1)N[C@@H](C(=O)OC)CCCC[C@H](NC(=O)/C=C/c1cc(Cl)ccc1-n1cnnn1)c1nc-2c[nH]1", 8),
]

----------
experiment: Clearance in Sprague-Dawley rat at 0.49 mg/kg, iv or 0.98 mg/kg, po measured upto 24 hrs by LC-MS/MS analysis; assay type: ADME, organism-based; settings: in vivo
observable: clearance (mL/min/kg)

# smiles.record, observable, readout.units, assay.value
rows = [
    ("COC(=O)Nc1ccc2c(c1)N[C@@H](C(=O)O)CCCC[C@H](NC(=O)/C=C/c1cc(Cl)ccc1-n1cnnn1)c1nc-2c[nH]1", "clearance", "mL/min/kg", 7.7),
]

----------
test: Half life in Sprague-Dawley rat at 0.31 mg/kg, iv or 0.61 mg/kg, po measured upto 24 hrs by LC-MS/MS analysis; format: ADME, organism-based; conditions: in vivo
observable: half-life (min)

# smiles.record, assay.value
records = [
    ("O=C(/C=C/c1cc(Cl)ccc1-n1cnnn1)N[C@H]1CCCCC(=O)Nc2ccccc2-c2c[nH]c1n2", 30),
]

----------
experiment: Oral bioavailability in Sprague-Dawley rat at 0.98 mg/kg measured upto 24 hrs by LC-MS/MS analysis; type: ADME, organism-based; settings: in vivo

# smiles.record, readout.units, bioavailability
data = [
    ("COC(=O)Nc1ccc2c(c1)N[C@@H](C(=O)O)CCCC[C@H](NC(=O)/C=C/c1cc(Cl)ccc1-n1cnnn1)c1nc-2c[nH]1", "%", 1),
]

----------
experiment: Metabolic stability in human liver microsomes assessed as half life; assay type: ADME, Microsome

# smiles.record, half-life [min]
rows = [
    ("COC(=O)Nc1ccc2c(c1)N[C@@H](C(F)(F)F)CCCC[C@H](NC(=O)/C=C/c1cc(Cl)ccc1-n1cnnn1)c1cc-2ccn1", 95),
    ("O=C(/C=C/c1cc(Cl)ccc1-n1cnnn1)N[C@H]1C/C=C/CCC(=O)Nc2ccccc2-c2c[nH]c1n2", 3),
    ("COC(=O)Nc1ccc2c(c1)C[C@@H](C(=O)OC)CCCC[C@H](NC(=O)/C=C/c1cc(Cl)ccc1-n1cnnn1)c1nc-2c[nH]1", 8),
    ("COC(=O)c1ccc2c(c1)-c1c[nH]c(n1)[C@@H](NC(=O)/C=C/c1cc(Cl)ccc1-n1cnnn1)C/C=C/CCC(=O)N2", 6),
    ("COC(=O)Nc1ccc2c(c1)N[C@@H](C(=O)O)CCCC[C@H](NC(=O)/C=C/c1cc(Cl)ccc1-n1cnnn1)c1cc-2ccn1", 99),
    ("COC(=O)Nc1ccc2c(c1)NC(=O)CCCC[C@H](NC(=O)/C=C/c1cc(Cl)ccc1-n1cnnn1)c1nc-2c[nH]1", 90),
    ("COC(=O)Nc1ccc2c(c1)N[C@@H](C(F)F)CCCC[C@H](NC(=O)/C=C/c1cc(Cl)ccc1-n1cnnn1)c1nc-2c[nH]1", 25),
]

----------
experiment: Half life in Sprague-Dawley rat at 1.13 mg/kg, iv or 2.27 mg/kg, po measured upto 24 hrs by LC-MS/MS analysis; type: ADME, organism-based; conditions: in vivo

# smiles.record, half-life (h)
measured = [
    ("COC(=O)Nc1ccc2c(c1)NC(=O)CCCC[C@H](NC(=O)/C=C/c1cc(Cl)ccc1-n1cnnn1)c1nc-2c[nH]1", 1),
]

----------
experiment: AUC in Sprague-Dawley rat at 1.04 mg/kg, po measured upto 24 hrs by LC-MS/MS analysis; assay type: ADME, organism-based; set-up: time < 24 hr, dose 1.04 mg/kg, route oral; details: in vivo
observable: AUC at 24 h (µM·h)

# smiles.record, readout.units, assay.value
measured = [
    ("COC(=O)Nc1ccc2c(c1)N[C@@H](C(=O)OC)CCCC[C@H](NC(=O)/C=C/c1cc(Cl)ccc1-n1cnnn1)c1cc-2ccn1", "µM·h", 0.889),
]

----------
experiment: Volume of distribution at steady state in Sprague-Dawley rat at 0.31 mg/kg, iv or 0.61 mg/kg, po measured upto 24 hrs by LC-MS/MS analysis; assay type: ADME, organism-based; settings: in vivo, read-out: Vdss
observable: Vd

# smiles.record, assay.value
records = [
    ("O=C(/C=C/c1cc(Cl)ccc1-n1cnnn1)N[C@H]1CCCCC(=O)Nc2ccccc2-c2c[nH]c1n2", "1.2 L/kg"),
]

----------
Measured half-life values are reported for all entries that follow.
assay: Metabolic stability in rat liver microsomes assessed as half life; type: ADME, Microsome
observable: half-life (min)

# smiles.record, observable, readout.units, assay.value
records = [
    ("COC(=O)Nc1ccc2c(c1)N[C@@H](C(=O)OC)CCCC[C@H](NC(=O)/C=C/c1cc(Cl)ccc1-n1cnnn1)c1nc-2c[nH]1", "half-life", "min", 48),
    ("COC(=O)Nc1ccc2c(c1)NC(=O)CCCC[C@H](NC(=O)/C=C/c1cc(Cl)ccc1-n1cnnn1)c1nc-2c[nH]1", "half-life", "min", 76),
    ("CCOC(=O)[C@H]1CCCC[C@H](NC(=O)/C=C/c2cc(Cl)ccc2-n2cnnn2)c2cc(ccn2)-c2ccc(NC(=O)OC)cc2N1", "half-life", "min", 59),
    ("COC(=O)Nc1ccc2c(c1)N[C@@H](C(=O)O)CCCC[C@H](NC(=O)/C=C/c1cc(Cl)ccc1-n1cnnn1)c1nc-2c[nH]1", "half-life", "min", 75),
    ("COC(=O)Nc1ccc2c(c1)N[C@@H](C(F)(F)F)CCCC[C@H](NC(=O)/C=C/c1cc(Cl)ccc1-n1cnnn1)c1nc-2c[nH]1", "half-life", "min", 14),
    ("CCOC(=O)[C@H]1CCCC[C@H](NC(=O)/C=C/c2cc(Cl)ccc2-n2cnnn2)c2nc(c[nH]2)-c2ccc(NC(=O)OC)cc2N1", "half-life", "min", 34),
    ("COC(=O)Nc1ccc2c(c1)N[C@@H](C(=O)OC)CCCC[C@H](NC(=O)/C=C/c1cc(Cl)ccc1-n1cnnn1)c1cc-2ccn1", "half-life", "min", 87),
]
